# System: PC-3 PIP/flu tumor-bearing mice
# ASSAY TEXT: Biodistribution studies in PC-3 PIP/flu tumor-bearing mice
# CONDITIONS USED: 1 h p.i.; PC-3 PIP tumor
READOUT LABEL: Tumor-to-kidney
One number for each entry.

A selection of reference data follows.
{"MOLECULE": "O=C(O)CCC(NC(=O)NC(CCCCNC(=O)C(Cc1ccc2ccccc2c1)NC(=O)C1CCC(n2cc(CC(NC(=O)CN3CCN(CC(=O)O)CCN(CC(=O)O)CCN(CC(=O)O)CC3)C(=O)NC(CCCCNC(=O)CCCc3ccc(I)cc3)C(=O)O)nn2)CC1)C(=O)O)C(=O)O (stereo not drawn) [^177Lu-PSMA-ALB-01, metal not drawn]", "VALUE OBSERVED": 0.46}
{"MOLECULE": "Cc1ccc(CCCC(=O)NCCCC[C@H](NC(=O)CCC(C(=O)O)N2CCN(CC(=O)O)CCN(CC(=O)O)CC2)C(=O)NC[C@H]2CC[C@H](C(=O)N[C@H](Cc3ccc4ccccc4c3)C(=O)NCCCC[C@@H](NC(=O)N[C@H](CCC(=O)O)C(=O)O)C(=O)O)CC2)cc1 (stereo partly drawn) [^64Cu-PSMA-ALB-89, metal not drawn]", "VALUE OBSERVED": 0.40}
{"MOLECULE": "O=C(O)CCC(NC(=O)NC(CCCCNC(=O)C(Cc1ccc2ccccc2c1)NC(=O)C1CCC(CNC(=O)C(CCCCNC(=O)CN2CCN(CC(=O)O)CCN(CC(=O)O)CCN(CC(=O)O)CC2)NC(=O)CCCCCCC(=O)NC(CCCCNC(=O)CCCc2ccc(I)cc2)C(=O)O)CC1)C(=O)O)C(=O)O (stereo not drawn) [^177Lu-PSMA-ALB-04, metal not drawn]", "VALUE OBSERVED": 0.54}

Give me Tumor-to-kidney for each of these molecules, listed below.
1. Cc1ccc(CCCC(=O)NCCCCC(NC(=O)CN2CCN(CC(=O)O)CCN(CC(=O)O)CCN(CC(=O)O)CC2)C(=O)NCC2CCC(C(=O)NC(Cc3ccc4ccccc4c3)C(=O)NCCCCC(NC(=O)NC(CCC(=O)O)C(=O)O)C(=O)O)CC2)cc1 (stereo not drawn) [44Sc-PSMA-ALB-06, metal not drawn]
2. O=C(O)CCC(NC(=O)NC(CCCCNC(=O)C(Cc1ccc2ccccc2c1)NC(=O)C1CCC(CNC(=O)C(CCCCNC(=O)CN2CCN(CC(=O)O)CCN(CC(=O)O)CCN(CC(=O)O)CC2)NC(=O)CC(NC(=O)CC(NC(=O)CCCc2ccc(I)cc2)C(=O)O)C(=O)O)CC1)C(=O)O)C(=O)O (stereo not drawn) [^177Lu-PSMA-ALB-05, metal not drawn]
3. O=C(O)CCC(NC(=O)NC(CCCCNC(=O)C(Cc1ccc2ccccc2c1)NC(=O)C1CCC(CNC(=O)C(CCCCNC(=O)CCCc2ccc(I)cc2)NC(=O)CN2CCN(CC(=O)O)CCN(CC(=O)O)CCN(CC(=O)O)CC2)CC1)C(=O)O)C(=O)O (stereo not drawn) [^177Lu-PSMA-ALB-03, metal not drawn]

OUTPUT:
0.77
0.79
0.48
